# system.name: T1, human latent myostatin (human, UniProt O14793 25-266; O14793 267-375)
# T1 construct: non-covalent complex of two propeptides and the mature homodimer; also called human myostatin latent form
# T1 sequence 1: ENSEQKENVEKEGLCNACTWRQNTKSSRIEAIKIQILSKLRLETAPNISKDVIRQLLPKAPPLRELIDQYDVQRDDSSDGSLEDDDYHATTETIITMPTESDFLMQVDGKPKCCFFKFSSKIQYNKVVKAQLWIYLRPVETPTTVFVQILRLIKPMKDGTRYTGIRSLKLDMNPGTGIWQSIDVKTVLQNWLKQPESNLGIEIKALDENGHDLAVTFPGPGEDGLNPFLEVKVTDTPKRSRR
# T1 sequence 2: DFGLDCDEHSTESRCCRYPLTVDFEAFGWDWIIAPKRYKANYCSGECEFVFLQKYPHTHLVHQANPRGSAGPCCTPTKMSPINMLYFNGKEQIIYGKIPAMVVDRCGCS
# experiment.notes: SPR 37C pH7.4; pH 7.4
Kd values by entry
I only need the number, in nM, no unit after it.

Please review the following examples before continuing.
>  <binder>
MS_M103205H1046-SG1/M103202L889-SK1 (antibody, human IgG1, kappa, V domains shown, also called MS1032LO10-SG1) VH: QVTLKESGPVLVKPTETLTLTCTVSGIDLSHTDISWVRQAPGKGLEWVGIISYAGKTYYASWAKKRLTISKDTSKNQVVLTMTNMDPVDTATYYCARGVPAYSHGGDLWGQGTLVTVSS VL: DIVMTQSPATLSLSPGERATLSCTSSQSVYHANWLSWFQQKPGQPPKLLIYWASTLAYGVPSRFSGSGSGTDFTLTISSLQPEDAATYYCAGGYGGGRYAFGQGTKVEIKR

>  <measurement.units>
nM

>  <Kd>
0.351

$$$$
>  <binder>
MS_M103205H1004-SG1/M103202L889-SK1 (antibody, human IgG1, kappa, V domains shown, also called MS1032LO07-SG1) VH: QVTLKESGPVLVKPTETLTLTCTVSGIDLSHDDISWVRQAPGKGLEWVGIISYAGSMYYASWAKGRLTISKDTSKNQVVLTMTNMDPVDTATYYCARGVPAYSHGGDKWGQGTLVTVSS VL: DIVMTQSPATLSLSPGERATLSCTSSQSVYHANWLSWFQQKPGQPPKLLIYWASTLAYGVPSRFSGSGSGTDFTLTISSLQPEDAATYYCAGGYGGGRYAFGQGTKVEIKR

>  <measurement.units>
nM

>  <Kd>
0.275

$$$$

Proceed to the following item.
Consider the binder MS_M103240H1246-SG1/M103202L1045-SK1 (antibody, human IgG1, kappa, V domains shown, also called MS1032LO25-SG1) VH: QVQLVESGGGLVQPGGSLRLSCAVSGIDLSHEDISWVRQAPGKGLEWVSIISYAGSKYYASWAKGRLTISKDTSKNQVVLTMTNMDPVDTATYYCARGVPAYSHGGDLWGQGTLVTVSS VL: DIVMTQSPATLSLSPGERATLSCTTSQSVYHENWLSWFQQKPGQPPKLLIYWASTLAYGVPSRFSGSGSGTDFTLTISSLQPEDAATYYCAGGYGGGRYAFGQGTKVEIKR and give its measured Kd.
0.276
